Examples of molecules with documented % bound follow.
- EXPERIMENTAL_SYSTEM: Nucleoprotein (Rift valley fever virus (strain ZH-548 M12)) (UniProt P21700)
- Sequence (P21700 whole entry, looked up): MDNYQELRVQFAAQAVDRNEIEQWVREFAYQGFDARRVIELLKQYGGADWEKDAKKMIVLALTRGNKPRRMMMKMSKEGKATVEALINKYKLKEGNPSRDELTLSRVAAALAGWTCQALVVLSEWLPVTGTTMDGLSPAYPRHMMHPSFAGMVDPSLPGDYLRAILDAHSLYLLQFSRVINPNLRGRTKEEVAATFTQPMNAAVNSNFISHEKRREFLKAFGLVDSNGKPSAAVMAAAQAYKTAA
- TEST_DESCRIPTION: inhibitors of RVFV nucleoprotein–RNA binding, primary screen, biochemical, fluorescence polarization (AID 651828)
- PROTOCOL_CONDITIONS: RVFV N-RNA binding, active compounds read low, concentration not given here
Screen size: about 20,000 compounds; about 25 (0.1%) were called active. This excerpt belongs to a sample that is enriched for actives.
Give the quantity in %, number only.

> print(dat)
                                   molecule  result.type  measured.number
1          O=C(CN1CCSCC1)N/N=C/c1ccc(Br)cc1      % bound              101
2  CCOC(=O)N1CCN(C(=O)CN(c2ccccc2)S(=O)(=O)c2ccc(F)cc2)CC1      % bound             93.7
3  O=C(Nc1ccc(C(=O)N2CCCc3ccccc32)cc1)c1ccco1      % bound             95.2

Q: Given `CC(C)CC(=O)Nc1ccncc1` , state its recorded % bound.
Result: 86

Q: Given `CCOc1ccc(C(=O)Nc2cccc(-c3ccc4nncn4n3)c2)cc1` , state its recorded % bound.
Result: 107

Q: Given `Cc1cccc(N2CCN(C(=O)N(C)C)CC2)c1C` , state its recorded % bound.
Result: 77.7

Q: Given `Cc1cc(C)cc(C(=O)NC(=S)Nc2ccc3[nH]c(=O)[nH]c3c2)c1` , state its recorded % bound.
Result: 98.5

Q: Given `O=C(OCCO)c1cc(Cl)c(C(=O)OCCO)cc1Cl` , state its recorded % bound.
Result: 104

Q: Given `CNC(=O)O/N=C/c1nn(C)cc1Br` , state its recorded % bound.
Result: 94.8

Q: Given `COc1ccc2oc(=O)c(S(=O)(=O)c3ccccc3)cc2c1` , state its recorded % bound.
Result: 85

Q: Given `CC(C)CCn1c(CO)cnc1S(=O)(=O)C(C)C` , state its recorded % bound.
Result: 86.9

Q: Given `COC(=O)CSc1nnc2c3ccccc3n(CCc3ccccc3)c2n1` , state its recorded % bound.
Result: 104

Q: Given `CN(C)c1ccc(/C=C2\SC(=Nc3ccccc3)N(CCO)C2=O)cc1` , state its recorded % bound.
Result: 92.8

Q: Given `O=C1c2ccccc2C(=O)N1CCc1nn[nH]n1` , state its recorded % bound.
Result: 93.6

Q: Given `CS(=O)(=O)N1CCN(C(=O)CSc2ccccc2)CC1` , state its recorded % bound.
Result: 80.6

Q: Given CCN(CC)CCN1C(=O)C(O)=C(C(=O)/C=C/c2ccco2)C1c1ccc(OC)cc1 (stereo not drawn) , state its recorded % bound.
Result: 97.9

Q: Given O=S(=O)(c1ccccc1)N1CCn2cccc2C1c1ccccc1 (stereo not drawn) , state its recorded % bound.
Result: 99.1

Q: Given `Cc1[nH]c2ccccc2c1SCC(=O)Nc1nccs1` , state its recorded % bound.
Result: 108
